# testName: chemical genetic growth profiling, strain panel (AID 1159580);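 note: tested at 20 µM; growth read once vehicle control cultures reached saturation at 30 °C; 1 = growth at the plate median or of vehicle wells; lower values mean less growth of the strain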
# measurementSetup: S. cerevisiae deletion strains, growth OD, locus YOR329C, strain SCD5, stronger effect = lower value
Out of some 5,500 compounds screened, about 2,000 (36%) were called active. Roughly 18% stayed inconclusive and do not appear here. The list shows a part of the results.
Entries and their normalized growth values follow.
measureName: normalized growth

compoundstructurestring=Cc1oc(C(C)(C)C)cc1-c1cc(NC(=O)c2ccccc2)n[nH]1 measurename="normalized growth" observedvalue=0.981
compoundstructurestring=O=C(Nc1ccccc1Sc1ccc(C(F)(F)F)cc1[N+](=O)[O-])C(Cl)Cl measurename="normalized growth" observedvalue=0.997
compoundstructurestring=CC(=O)c1ccc(Sc2ccccc2)c([N+](=O)[O-])c1 measurename="normalized growth" observedvalue=0.881
compoundstructurestring=COC(=O)c1cc([N+](=O)[O-])ccc1S(=O)(=O)Cc1ccc(Cl)cc1 measurename="normalized growth" observedvalue=0.984
compoundstructurestring=S=C(NCCc1csc2ccccc12)Nc1ccc(Cl)cc1 measurename="normalized growth" observedvalue=0.952
compoundstructurestring=COc1ccc(OC)c2nc3c(nc12)C(=O)c1ccccc1-3 measurename="normalized growth" observedvalue=0.966
compoundstructurestring=O=C(NCc1ccc2c(c1)OCO2)c1cc2ccccc2s1 measurename="normalized growth" observedvalue=0.856
compoundstructurestring=S=C(NCc1cccs1)Nc1cc(Cl)cc(Cl)c1 measurename="normalized growth" observedvalue=0.949
compoundstructurestring=Cc1csc2ncnc(N3CCN(C(=S)Nc4ccc(C(F)(F)F)cc4)CC3)c12 measurename="normalized growth" observedvalue=0.998
compoundstructurestring=NNC(=O)c1oc2nc(-c3ccccc3)cc(-c3ccccc3)c2c1N measurename="normalized growth" observedvalue=0.985
compoundstructurestring=Cc1ccc2nc3c(nc2c1)-c1ccccc1C3=O measurename="normalized growth" observedvalue=0.92
compoundstructurestring=CC(C)(C)c1ccc(-c2cc(NC(=O)c3ccc(Cl)cc3)n[nH]2)cc1 measurename="normalized growth" observedvalue=1.04
compoundstructurestring=O=[N+]([O-])c1ccc(Sc2ccccc2)cc1O measurename="normalized growth" observedvalue=0.92
compoundstructurestring=Cc1cc(C)c2cc(C(=O)NCCNc3ccc(C(F)(F)F)cn3)[nH]c2c1 measurename="normalized growth" observedvalue=0.984
compoundstructurestring=FC(F)(F)c1c2c(nc3cc(-c4ccco4)nn13)CCC2 measurename="normalized growth" observedvalue=0.976
compoundstructurestring=O=C(OCCNc1ccc([N+](=O)[O-])cn1)c1ccc([N+](=O)[O-])o1 measurename="normalized growth" observedvalue=0.921
compoundstructurestring=Cc1csc2c(N3CCN(C(=S)Nc4ccc(C(F)(F)F)cc4)CC3)ncnc12 measurename="normalized growth" observedvalue=0.986
